Every entry's value here was drawn from PubChem BioAssay (NCI).

PROTOCOL_SUMMARY: NCI Yeast Anticancer Drug Screen. Data for the cln2 rad14 strain (AID 165)
EXPERIMENTAL_PARAMETERS: S. cerevisiae cln2 rad14 strain, at 50.0 µM
This is part of a sample that, as a whole, favours compounds with a hit. Of some 79,000 tested, about 15% had one in any assay. Calls of active or inactive are those of the source. Rule as the data show it: active = growth inhibition above about 70%; inactive = the rest.
Form entry, call: pick from TRUE (active), FALSE (inactive)

compound_structure=CO[C@H]1C[C@](C)(O)Cc2cc3c(c(O)c21)C(=O)c1c(O)cc2c(c1C3=O)O[C@@H]1O[C@@]2(C)[C@H](O)[C@@H](N(C)C)[C@@H]1O category_label=FALSE
compound_structure=Cc1cc(N=Nc2ccc(S(=O)(=O)[O-])cc2)cc(C(=O)[O-])c1[O-].NC1CCCCC1N.[Na+].[Pt+4] category_label=TRUE
compound_structure=Cc1ccc(S(=O)(=O)NCCSS(=O)(=O)c2ccc(C)cc2)cc1 category_label=TRUE

Here's the next entry for you.
Recorded test call requested for `Cc1ccc(NN(NC(=O)OC(C)C)C(=O)OC(C)C)cc1`
FALSE
